Recorded TGI values for a group of compounds are listed next.
system: NCI-H23 lung; experiment: NCI tumour cell line growth inhibition, 48 h
Provide only the numeric value, understood in µM.

COMPOUND | READOUT KIND | READING
O=C(CSC(c1ccccc1)c1ccccc1)N/N=C/c1ccco1 | TGI | 4.46

Record `CC[C@@]1(O)C(=O)OCc2c1cc1n(c2=O)Cc2c-1nc1cc(F)c(C)c3c1c2[C@@H](N)CC3` has NCI-H23 lung TGI equal to 0.0638

Record CCCCCCCCCCCCOC1C(C(CC(=O)NCCN2CCCC2)NS(=O)(=O)c2cc(Cl)cc(Cl)c2)OC2OC(C)(C)OC21 (configuration not stated) has NCI-H23 lung TGI equal to 4.76

Record O=C(c1ccco1)C1CC(c2c(O)ccc3ccccc23)=NN1 (configuration not stated) has NCI-H23 lung TGI equal to 37.7

Record `O=C1c2cccc(NCCNCCO)c2C(=O)c2cccc(NCCNCCO)c21` has NCI-H23 lung TGI equal to 5.68

Record C[C@H]1CCC/C=C/[C@@H]2C[C@H](O)C[C@H]2[C@H](O)[C@@H](SCC(O)CO)CC(=O)O1 (some centres not stated) has NCI-H23 lung TGI equal to 60.5

---

test system: SF-295 CNS; assay: NCI tumour cell line growth inhibition, 48 h
Recorded TGI values for a group of compounds are listed next.

COMPOUND | READING
COc1ccccc1N1CCN(CCCNC(=O)c2cc(Cl)c(N)c(Cl)c2)CC1 | 34.1 µM
CC(C)CCn1nc(N)c2nc3ccccc3nc21 | > 100 µM
COc1cc([C@@H]2c3cc4c(cc3[C@@H](c3c(O)cc(O)c5c3O[C@H](c3ccc(O)c(O)c3)[C@@H](O)C5)[C@H]3COC(=O)[C@H]23)OCO4)cc(OC)c1O | > 100 µM
COc1cc(C=C2C(=O)NC(=S)NC2=O)cc(OC)c1OC | > 100 µM

Okay, next one:
The compound listed as `CC1=C(C(=O)NNS(=O)(=O)c2ccc(C)cc2)CC(C(=O)NNS(=O)(=O)c2ccc(C)cc2)=C(C)N1` shows TGI equal to > 100 µM

---

system: MALME-3M melanoma; assay: NCI tumour cell line growth inhibition, 48 h
READOUT KIND: TGI

Examples with answers:
MOLECULE | TGI
C[C@]1(S(=O)(=O)c2ccccc2)C[C@H]2N(Cc3ccccc3)[C@@H]1CCC21OCCO1 | > 100 µM
O=C(O)CN(c1ccccc1)S(=O)(=O)c1ccc([N+](=O)[O-])cc1 | > 100 µM

Okay, next one:
The molecule listed as S=C1CC(c2ccccc2)Sc2ccc(Cl)cc2N1 (stereo not drawn) shows TGI equal to > 100 µM

---

tested on: OVCAR-4 ovarian; experiment: NCI tumour cell line growth inhibition, 48 h
READOUT KIND: TGI (µM)
Provide only the numeric value, understood in µM.

CHEMICAL STRUCTURE | UNITS SYMBOL | TGI
O=C1c2cccc(NCCNCCO)c2C(=O)c2cccc(NCCNCCO)c21 | µM | 2.49

Okay, next one:
The compound listed as `O=C([CH-]C(=O)c1ccccc1)c1ccccc1.O=C([CH-]C(=O)c1ccccc1)c1ccccc1.[O]=[U+2]=[O]` shows TGI equal to 14

---

Recorded TGI values for a group of molecules are listed next.
system: A498 renal; assay: NCI tumour cell line growth inhibition, 48 h

Examples with answers:
MOLECULE | TGI
COC(=O)C1=C(O)C(C(=O)OC)[C@@]2(O)[C@@H](C(=O)OC)[C@H](C)[C@@H](C)[C@@H]1[C@@H]2C(=O)OC (stereo partly specified) | > 100 µM
O=C(O)CC(NC(=O)/C(=C/c1ccccc1O)NC(=O)c1ccccc1)C(=O)O (stereo unspecified) | > 100 µM
COc1ccc(-c2csc(NC(=O)CSc3nc(C)c(-c4ccccc4)n3Nc3ccccc3)n2)cc1 | > 100 µM
COc1cc(C(=O)N2CCc3c([nH]c4c([N+](=O)[O-])c(OC)ccc34)C2C)cc(OC)c1OC (stereo unspecified) | > 100 µM
Cc1ccc(S(=O)(=O)NC(=O)NC2=NC(C)(C)N(c3ccc(Cl)c(Cl)c3)C(N)=N2)cc1 | > 100 µM
CC(C)(C)c1ccc(OCC(=O)O)c(Cl)c1 | > 100 µM

The molecule listed as `N#CC(=N)c1ncn(-c2ccccc2N)c1N` shows TGI equal to > 100 µM

The molecule listed as `COC(=O)/C(=C\c1ccc(N(CCC#N)CCC#N)cc1)NC(=O)c1cc([N+](=O)[O-])ccc1Cl` shows TGI equal to > 100 µM

The molecule listed as `COc1ccc2c(c1)CCN=C2c1ccccc1CCCCl` shows TGI equal to > 100 µM

The molecule listed as `Cc1ccc(S(=O)(=O)NC(=O)NNc2ccc(F)cc2)cc1` shows TGI equal to > 100 µM

The molecule listed as C=CCn1c2c(sc1=S)C(S)N=CN2 (stereo unspecified) shows TGI equal to > 100 µM
